Task for the reader: assign each of the following compounds its reported normalized growth.
Experiment: chemical genetic growth profiling, strain panel (AID 1159580);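 also: tested at 20 µM; growth read once vehicle control cultures reached saturation at 30 °C; 1 = growth at the plate median or of vehicle wells; lower values mean less growth of the strain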
Conditions: S. cerevisiae deletion strains, growth OD, locus YHR030C, strain SLT2, stronger effect = lower value
In all, about 5,500 compounds went through this assay and about 2,000 (36%) were called active. Not shown: some 18% with an inconclusive outcome. The list shows a part of the results.

normalized growth for C[N+](C)(CCOc1ccccc1)Cc1ccccc1 ?
0.888 (inactive)

normalized growth for CN1C2CC3C[C@H]1C(O3)C2O (some centres not stated) ?
1.01 (inactive)

normalized growth for OCC(O)Cc1ccc2c(c1)OCO2 (configuration not stated) ?
1.01 (inactive)

normalized growth for N#Cc1c(Cl)c(Cl)c(Cl)c(Cl)c1C#N ?
0.23 (active)

normalized growth for COc1ccc2c(c1)C1(C)CCC(=O)CC1CC2 (configuration not stated) ?
0.993 (inactive)

normalized growth for Cc1cc(C)c2c(-n3cccc3)c(C(=O)c3ccc(Cl)cc3)sc2n1 ?
0.884 (inactive)

normalized growth for CC12CCC(C1)C(C)(C)C2NC(=O)c1cccs1 (configuration not stated) ?
0.848 (inactive)

normalized growth for O=[N+]([O-])O[C@@H]1CO[C@H]2[C@@H]1OC[C@@H]2O ?
0.983 (inactive)

normalized growth for C=C1CC2C3C=C(C)C4=CC(=O)CC[C@]4(C)C3CC[C@]2(C)[C@@]1(OC(C)=O)C(C)=O (some centres not stated) ?
0.955 (inactive)

normalized growth for COc1ccc(-c2coc3c(OC)c(OC)cc(OC)c3c2=O)cc1 ?
0.997 (inactive)

normalized growth for CC(C)(C)OC(=O)N1CCC(C(N)=O)CC1 ?
1.08 (inactive)

normalized growth for Cc1ccc2cc(C)c(C)cc2c1 ?
0.729 (inactive)

normalized growth for C=C1CC[C@H](O)C/C1=C/C=C1\CCCC2(C)C1CCC2C(C)CCCC(C)C (some centres not stated) ?
0.874 (inactive)

normalized growth for O=C(O)c1cc(=O)c2cc(Cl)ccc2[nH]1 ?
1 (inactive)

normalized growth for O=C(Nc1cc(Cl)cc(Cl)c1)Nc1cc(-c2cccs2)[nH]n1 ?
0.459 (active)

normalized growth for S=C(Nc1cc(-c2cccs2)[nH]n1)Nc1ccccc1Cl ?
0.616 (active)

normalized growth for COc1ccc(C(C)=O)c(OC)c1 ?
0.954 (inactive)

###

Task for the reader: assign each of the following molecules its reported normalized growth.
Assay: chemical genetic growth profiling, strain panel (AID 1159580);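 also: tested at 20 µM; growth read once vehicle control cultures reached saturation at 30 °C; 1 = growth at the plate median or of vehicle wells; lower values mean less growth of the strain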
Settings: S. cerevisiae deletion strains, growth OD, locus YIR030C, strain dcg1, stronger effect = lower value
Hit rate of the full screen: of about 5,500 compounds, about 2,000 (36%) were called active. About 18% were inconclusive and are not listed. Some of the results follow.
Give the value as a plain number.

normalized growth for CC1(O)/C=C/C=C(\CO)C2CC(C)(C)C2(O)CC1 (stereo unspecified) ?
1.01

normalized growth for CC(C)CC1C(=O)N2CCC[C@H]2C2(O)O[C@](NC(=O)C3C=C4c5cccc6[nH]c(Br)c(c56)C[C@H]4N(C)C3)(C(C)C)C(=O)N12 (stereo partly specified) ?
0.987

normalized growth for C[C@@H]1O[C@@H](O[C@H]2[C@@H](Oc3cc(O)c4c(c3)O[C@H](c3ccc(O)cc3)CC4=O)O[C@H](CO)[C@@H](O)[C@@H]2O)[C@H](O)[C@H](O)[C@H]1O ?
0.986

normalized growth for COc1ccc(-c2c(O)c3cc4c(c(CC=C(C)C)c3oc2=O)OC(C)(C)CC4)cc1 ?
1.01

normalized growth for Cc1ccc2c(c1)CC[C@H]1CC(=O)CC[C@]21C ?
0.974

normalized growth for Cc1c(O)cc(O)c2c(=O)c(-c3ccc(O)cc3)coc12 ?
1.01
